target.of.assay: T1, EsCas13d, nuclease-dead (Eubacterium siraeum, UniProt B0MS50, R295A;H300A;R849A;H854A)
T1 sequence: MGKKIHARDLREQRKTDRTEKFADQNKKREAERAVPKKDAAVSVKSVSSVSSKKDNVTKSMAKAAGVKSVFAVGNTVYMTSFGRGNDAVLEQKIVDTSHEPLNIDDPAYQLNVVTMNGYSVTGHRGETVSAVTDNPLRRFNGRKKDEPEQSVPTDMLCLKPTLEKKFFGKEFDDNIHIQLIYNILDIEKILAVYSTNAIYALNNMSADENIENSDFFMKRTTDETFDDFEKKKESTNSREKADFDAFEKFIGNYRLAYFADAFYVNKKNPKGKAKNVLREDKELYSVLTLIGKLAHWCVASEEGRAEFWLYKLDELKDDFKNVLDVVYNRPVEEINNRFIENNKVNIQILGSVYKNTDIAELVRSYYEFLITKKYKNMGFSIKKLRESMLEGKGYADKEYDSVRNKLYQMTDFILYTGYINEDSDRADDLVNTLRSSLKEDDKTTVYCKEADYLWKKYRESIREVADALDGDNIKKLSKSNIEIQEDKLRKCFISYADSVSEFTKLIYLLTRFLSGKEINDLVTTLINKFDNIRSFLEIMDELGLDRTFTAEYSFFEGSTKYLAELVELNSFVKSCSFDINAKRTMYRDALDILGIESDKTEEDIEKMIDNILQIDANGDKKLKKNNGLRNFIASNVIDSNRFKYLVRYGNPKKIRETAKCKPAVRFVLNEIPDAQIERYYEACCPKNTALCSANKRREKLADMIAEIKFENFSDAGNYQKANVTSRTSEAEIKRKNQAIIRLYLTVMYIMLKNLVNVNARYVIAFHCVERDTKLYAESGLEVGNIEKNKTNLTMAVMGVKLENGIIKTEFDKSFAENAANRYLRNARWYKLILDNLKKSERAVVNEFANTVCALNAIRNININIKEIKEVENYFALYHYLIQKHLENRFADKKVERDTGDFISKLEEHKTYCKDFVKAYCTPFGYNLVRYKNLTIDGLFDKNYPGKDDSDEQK
assay.protocol: crRNA (strand 1, pre-loaded); Mg2+; 40 mM Tris-HCl pH 7.5, 150 mM NaCl, 6 mM MgCl2, 1 mM DTT, 0.1% Tween-20, 0.2 mg/ml BSA; 25 C; 10 min per concentration, then washed
cond: tags: His6-TwinStrep-SUMO cleaved; N-terminal SNAP kept (SNAP-Surface 488); label: 3' end held by stalled T7 RNA polymerase
pKd: −log10 of the molar value.
This listing pairs binders with measured pKd.
measured.quantity: pKd

target 1 C4G,U19C (mixed) RNA 1: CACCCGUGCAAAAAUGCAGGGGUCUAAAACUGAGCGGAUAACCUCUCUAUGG RNA 2: GGGAAUGGAUCCACAUCUACGAAUUCGUACCACAGAGAGGUUAUCCGGUCACCGAGAUCGGAAGAGCACACGU ... 7.55
target 2 MT 5'PFS UGG 3'PFS ACC (mixed) RNA 1: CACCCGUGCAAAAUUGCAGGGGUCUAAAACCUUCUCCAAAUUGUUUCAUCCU RNA 2: GGGAAUGGAUCCACAUCUACGAAUUCUGGAGGAUGAAACAAUUUGGAGAAGACCAGAUCGGAAGAGCACACGU ... 7.57
target 3 G4U,C6G (mixed) RNA 1: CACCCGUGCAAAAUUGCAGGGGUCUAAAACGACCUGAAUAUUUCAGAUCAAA RNA 2: GGGAAUGGAUCCACAUCUACGAAUUCGUUUUUGAUCUGAAAUAUUGAUGUCUGCAGAUCGGAAGAGCACACGU ... 7.16
target 1 insC 3' of 9,insG 3' of 8 (mixed) RNA 1: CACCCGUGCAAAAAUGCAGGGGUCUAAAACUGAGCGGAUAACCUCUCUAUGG RNA 2: GGGAAUGGAUCCACAUCUACGAAUUCGUACCAUAGAGAGGUUACUGCCGCUCACCGAGAUCGGAAGAGCACACGU ... 7.95
